Consider the following compounds; for each one, report its AC50.
Target: human Peripheral-type Benzodiazepine Receptor (PBR), TSPO (gene 706)
Test: NVS_MP_hPBR: NovaScreen (NVS) Membrane Protein Assay for human Peripheral-type Benzodiazepine Receptor (PBR) (AID 2283331);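 further: hits reduce radioligand binding relative to DMSO baseline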
Results filed as inconclusive are left out. Calls of active or inactive are those of the source. How the source made its calls: active means hit-call score of the fitted dose curve at least 0.9, where 1 is the maximum; inconclusive means response in the unintended direction; inactive means score below 0.9.

Reference set (3 entries):
> print(dat)
                               compound  value.type            result
1  O=C(OCCOCCOCCOC(=O)c1ccccc1)c1ccccc1        AC50  9.76 µM (active)
2          CCN(CC)c1ccc2c(C)cc(=O)oc2c1        AC50  4.66 µM (active)
3      CC(=O)Nc1ccc(N=Nc2cc(C)ccc2O)cc1        AC50  2.21 µM (active)

Field: next compound
Briefly, AC50 measured for CCCCCCC(C)OC(=O)CCCCC(=O)OC(C)CCCCCC (centres undefined) : 10.2 µM (active)

----------
Read-out: Interleukin-8 (IL8), CXCL8 (gene 3576)
Test: BSK_BF4T_IL8: BioMAP Diversity Plus: BF4T Assay for Interleukin-8 (IL8) Biomarker Activity (AID 2284263)
Conditions: primary human bronchial epithelial cells with fibroblasts
Activity calls are given as the source filed them. The calls were made as follows: active = hit-call score of the fitted dose curve at least 0.9, where 1 is the maximum; inactive = score below 0.9.
VALUE_TYPE: outcome

Here are 9 compounds together with their reported answers.
> print(dat)
                                        mol    result
1  OCC(F)(F)C(F)(F)C(F)(F)C(F)(F)C(F)(F)C(F)F  inactive
2  FC(F)(Br)C(F)(F)C(F)(F)C(F)(F)C(F)(F)C(F)(F)Br  inactive
3  C=C(C)C(=O)OCCC(F)(F)C(F)(F)C(F)(F)C(F)(F)C(F)(C(F)(F)F)C(F)(F)F  inactive
4  O=C(Cl)C(F)(F)C(F)(F)C(F)(F)C(F)(F)C(F)(F)C(F)(F)C(F)(F)C(F)(F)F  inactive
5  CCCCCCCCC(F)(F)C(F)(F)C(F)(F)C(F)(F)C(F)(F)C(F)(F)F  inactive
6             O=C(O)C(F)(F)C(F)(F)OC(F)(F)F  inactive
7                  O=S(=O)(OCC(F)F)C(F)(F)F  inactive
8                  FC(F)(F)C(F)(F)C(F)(F)CI  inactive
9  N=C(N)C(F)(F)C(F)(F)C(F)(F)C(F)(F)C(F)(F)C(F)(F)C(F)(F)F  inactive

For CCO[Si](CCC(F)(F)C(F)(F)C(F)(F)C(F)(F)C(F)(F)C(F)(F)F)(OCC)OCC the compound record lists outcome as inactive

----------
Assay: ATG_ERE_CIS: Attagene CIS-FACTORIAL HepG2 Assay for Estrogen Response Element (ERE) (AID 2282940)
Conditions: HepG2 ERE cis-reporter, Attagene RNA transcript; actives raise or lower the signal
Calls of active or inactive are those of the source. Rule for the calls: active = hit-call score of the fitted dose curve at least 0.9, where 1 is the maximum; inactive = score below 0.9.
One label from this list, please: active, inactive

Illustrative cases are given below, each with its answer.
> print(dat)
                                   molecule  label.value
1                          CCCCOc1ccc(N)cc1     inactive
2                                      [Co]     inactive
3                      CCCCCCOC(=O)c1ccccc1     inactive
4  FC(F)(F)C(F)(F)C(F)(F)C(F)(F)C(F)(F)C(F)(F)CC1CO1 (stereo unspecified)     inactive

Dear colleague, could you share the recorded outcome for FC(F)(Br)C(F)(F)C(F)(F)C(F)(F)C(F)(F)C(F)(F)Br when you have a moment? active

Assay outcome for C1COCCN1 : what was it? inactive

// param item: C=C(C)C(=O)OCCC(F)(F)C(F)(F)C(F)(F)C(F)(F)C(F)(C(F)(F)F)C(F)(F)F ; yields the recorded call active

Which result was noted for this molecule in the test: O=C(O)C(F)(OC(F)(F)C(F)(OC(F)(F)C(F)(F)C(F)(F)F)C(F)(F)F)C(F)(F)F (stereo unspecified) inactive

Given CCO[Si](CCC(F)(F)C(F)(F)C(F)(F)C(F)(F)C(F)(F)C(F)(F)F)(OCC)OCC , state the outcome it received in this test. inactive

Could you kindly confirm the outcome this assay logged for CCCCCCCCC(F)(F)C(F)(F)C(F)(F)C(F)(F)C(F)(F)C(F)(F)F ? inactive

Would you mind telling me which call this test gave FC(F)(F)C(F)(F)C(F)(F)C(F)(F)C(F)(F)C(F)(F)C(F)(F)C(F)(F)F ? inactive

----------
Read-out: Matrix Metallopeptidase 1 (MMP1), MMP1 (gene 4312)
Experiment: BSK_hDFCGF_MMP1: BioMAP Diversity Plus: hDFCGF Assay for Matrix Metallopeptidase 1 (MMP1) Biomarker Activity (AID 2283064)
Conditions: primary human foreskin fibroblasts; actives raise or lower the signal
Calls of active or inactive are those of the source. The calls were made as follows: active = hit-call score of the fitted dose curve at least 0.9, where 1 is the maximum; inactive = score below 0.9.
API: response.call in 1 for active, 0 for inactive

> print(dat)
                                        mol  label.value
1  O=S(=O)(O)C(F)(F)C(F)(F)C(F)(F)C(F)(F)C(F)(F)C(F)(F)C(F)(F)F            0
2          CC(=O)Nc1ccc(N=Nc2cc(C)ccc2O)cc1            1
3  FC(F)(F)C(F)(F)C(F)(F)C(F)(F)C(F)(F)C(F)(F)C(F)(F)C(F)(F)CCS            0
4  FC(F)(F)C(F)(F)C(F)(F)C(F)(F)C(F)(F)C(F)(F)CCS            0

Now for another entry.
Which outcome was entered for the molecule CCN(CC)c1ccc2c(C)cc(=O)oc2c1 in this test? 0

----------
Assay: BSK_SAg_Proliferation: Cell Proliferation Assessment in the BioMAP Diversity Plus: SAg Assay (AID 2283095);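 further: relative cell number as total protein by SRB absorbance in sub-confluent culture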
Details: primary human HUVEC with PBMC
Calls of active or inactive are those of the source. How the source made its calls: active means hit-call score of the fitted dose curve at least 0.9, where 1 is the maximum; inactive means score below 0.9.
Entry note: the call must match one of 1.0 for active, 0.0 for inactive

> print(dat)
                                   compound  label.value
1  O=P(O)(O)OCCC(F)(F)C(F)(F)C(F)(F)C(F)(F)C(F)(F)C(F)(F)F          0.0
2  O=S(=O)(O)C(F)(F)C(F)(F)C(F)(F)C(F)(F)C(F)(F)C(F)(F)C(F)(F)F          0.0
3  CCO[Si](CCC(F)(F)C(F)(F)C(F)(F)C(F)(F)C(F)(F)C(F)(F)F)(OCC)OCC          0.0

For Nc1ccc([N+](=O)[O-])cc1O , what call appears in the results of this test? 0.0

// return assay outcome for O=C(O)C(F)(F)C(F)(F)C(F)(F)F 0.0

----------
Experiment: BSK_MyoF_SRB: Viability Assessment in the BioMAP Diversity Plus: MyoF Assay (AID 2284267);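 further: total protein by SRB absorbance in parallel cultures as cytotoxicity measure; cells assessed 24 h after compound addition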
Settings: primary human lung fibroblasts
Calls of active or inactive are those of the source. Rule for the calls: active = hit-call score of the fitted dose curve at least 0.9, where 1 is the maximum; inactive = score below 0.9.
Hi there, use one of these labels in your reply, thanks! TRUE = active, FALSE = inactive

> print(dat)
                                   compound  label.value
1  C#C[C@]1(O)CC[C@H]2[C@@H]3CCc4cc(OC)ccc4[C@H]3CC[C@@]21C        FALSE
2              OCC(F)(F)C(F)(F)C(F)(F)C(F)F        FALSE
3  CCO[Si](CCC(F)(F)C(F)(F)C(F)(F)C(F)(F)C(F)(F)C(F)(F)F)(OCC)OCC        FALSE
4              CO[Si](OC)(c1ccccc1)c1ccccc1         TRUE
5  C=C(C)C(=O)OCC(F)(F)C(F)(F)C(F)(F)C(F)(F)C(F)(F)C(F)(F)C(F)(F)F        FALSE

Please share the test call associated with FC(F)(F)C(F)(F)C(F)(F)C(F)(F)C(F)(F)C(F)(F)C(F)(F)C(F)(F)F . FALSE

For this compound, state the assay outcome: C=CC/C=C/C/C=C/C/C=C/C FALSE

Write down the call the test reported for this compound. Item: CC(C)(C)C(=O)CC(=O)C(F)(F)C(F)(F)C(F)(F)F FALSE

Record lookup: outcome of this test for CC(CCl)OP(=O)(OC(C)CCl)OC(C)CCl (stereo unspecified) ? FALSE

----------
Experiment: ATG_BRE_CIS: Attagene CIS-FACTORIAL HepG2 Assay for human Bone Morphogenetic Protein (BMP) Response Element (BRE) (AID 2282933)
Conditions: HepG2 BMP response element reporter, Attagene transcription factor profiling; actives raise or lower the signal
Method: ATG_CIS is a cell-based, multiplexed-readout assay that uses HepG2, a human liver cell line, with measurements taken at 24 hours after chemical dosing in a 24-well plate.ATG_BRE_CIS is one of 52 assay component(s) measured or calculated from the ATG_CIS assay. […] This assay endpoint, ATG_BRE_CIS, was analyzed with bidirectional fitting relative to DMSO as the negative control and baseline of activity. […]
Active and inactive are the calls of the source. Rule for the calls: active = hit-call score of the fitted dose curve at least 0.9, where 1 is the maximum; inactive = score below 0.9.
VALUE_TYPE: outcome

> print(dat)
                                   compound  value.type    result
1                           Cc1cc(C)cc(O)c1     outcome  inactive
2  C=CC(F)(F)C(F)(F)C(F)(F)C(F)(F)C(F)(F)C(F)(F)C(F)(F)C(F)(F)C=C     outcome  inactive
3  OCC(F)(F)C(F)(F)C(F)(F)C(F)(F)C(F)(F)C(F)F     outcome  inactive
4   FC(F)(F)C(F)(F)C(F)(F)C(F)(F)C(F)(F)CCI     outcome  inactive
5  O=C(O)C(F)(OC(F)(F)C(F)(OC(F)(F)C(F)(OC(F)(F)C(F)(F)C(F)(F)F)C(F)(F)F)C(F)(F)F)C(F)(F)F (stereo not given)     outcome  inactive

# return outcome for each item in the list
1. C=C(C)C(=O)OCCC(F)(F)C(F)(F)C(F)(F)C(F)(F)C(F)(C(F)(F)F)C(F)(F)F
2. OCC(F)(F)C(F)(F)C(F)(F)C(F)F
3. CCCCOc1ccc(N)cc1
4. O=C(O)C(F)(F)C(F)(F)C(F)(F)F
5. O=C(O)C(F)(F)C(F)(F)C(F)(F)C(F)(F)C(F)(F)C(F)(F)C(F)(F)C(F)(F)C(F)(F)C(F)(F)C(F)(F)C(F)(F)F
6. O=C(O)C(F)(F)C(F)(F)C(F)(F)C(F)(F)F
7. C=C(C)C(=O)OCC(F)(F)C(F)(F)C(F)(F)C(F)(F)C(F)(F)C(F)(F)C(F)(F)F
8. OCC(F)(F)C(F)(F)C(F)(F)F

inactive
inactive
inactive
inactive
inactive
inactive
inactive
inactive

Please give outcome, item by item, for the list that follows.
1. CO[Si](OC)(c1ccccc1)c1ccccc1
2. CCCCOCCOCCOC(=O)CCCCC(=O)OCCOCCOCCCC
3. CCc1ccc(C(c2ccc(CC)cc2)C(Cl)Cl)cc1
4. CCCCCCC(C)OC(=O)CCCCC(=O)OC(C)CCCCCC (stereo not given)
5. O=C(OCCOCCOCCOC(=O)c1ccccc1)c1ccccc1

1: inactive; 2: inactive; 3: inactive; 4: inactive; 5: inactive
